Experiment: Acute toxicity for oral administration in mice
Type: in vivo
Conditions: mouse, in vivo, suspension in 10% gum arabic
A collection of molecules and their measured LD50
measurement name: LD50 (mg/kg)

> print(dat)
                         compound.structure  unit.label  censor.symbol  recorded.number
1         COc1cc(NC(=O)ON2CCOCC2)cc(OC)c1OC       mg/kg              >             5000
2       COc1cc(OC(=O)N2CCN(C)CC2)cc(OC)c1OC       mg/kg              =             1020
3       COc1cc(NC(=O)OCCN2CCOCC2)cc(OC)c1OC       mg/kg              =             3500
4  COc1cc(NC(=O)CCN2CCC(O)(c3ccc(Cl)cc3)CC2)cc(OC)c1OC       mg/kg              >             5000
5    COc1cc(OC(=O)N2CCOc3ccccc32)cc(OC)c1OC       mg/kg              >             5000
6          COc1cc(OC(=O)N2CCOCC2)cc(OC)c1OC       mg/kg              =             5000

====

A collection of compounds and their measured LD50
Assay: Acute toxicity for oral administration in mice
Type: in vivo
Conditions: mouse, in vivo, po, suspension in 10% gum arabic
measurement name: LD50

> print(dat)
                                    compound  measurement.name        result
 1  C=CCN(C(=O)Nc1cc(OC)c(OC)c(OC)c1)C1CCCCC1 [compound 811]              LD50    5000 mg/kg
 2  COc1cc(NC(=O)N2CC(C)OC(C)C2)cc(OC)c1OC (stereo not drawn) [compound 788]              LD50    1350 mg/kg
 3  COc1cc(NC(=O)N2CCN(C(=O)Nc3cc(OC)c(OC)c(OC)c3)CC2)cc(OC)c1OC [compound 840]              LD50  > 5000 mg/kg
 4  COc1cc(NCC(=O)N2CCN(C)CC2)cc(OC)c1OC [compound 786]              LD50    1700 mg/kg
 5  COc1cc(NC(=O)N2CCN(C)CC2)cc(OC)c1OC [compound 759]              LD50    4000 mg/kg
 6  COc1cc(NC(=O)N2CCCC2)cc(OC)c1OC [compound 810]              LD50    3750 mg/kg
 7  COc1cc(NC(=O)N2CCC(O)CC2)cc(OC)c1OC [compound 814]              LD50    5000 mg/kg
 8  COc1cc(NC(=O)N(C)C)cc(OC)c1OC [compound 775]              LD50    1700 mg/kg
 9  COc1cc(NC(=O)Nc2ccnc3cc(Cl)ccc23)cc(OC)c1OC [compound 777]              LD50  > 5000 mg/kg
10  COc1cc(NC(=O)NC2CCCC2)cc(OC)c1OC [compound 800]              LD50  > 5000 mg/kg
11  COc1cc(NC(=O)NCC2CCCCO2)cc(OC)c1OC (stereo not drawn) [compound 815]              LD50    5000 mg/kg
12  COc1cc(NC(=O)CN2CCN(CC(=O)Nc3cc(OC)c(OC)c(OC)c3)CC2)cc(OC)c1OC [compound 848]              LD50  > 5000 mg/kg
13  COc1cc(NCC(=O)N2CCOCC2)cc(OC)c1OC [compound 793]              LD50    1250 mg/kg
14  COc1cc(NC(=O)N2CCN(CC(=O)N3CCCCC3)CC2)cc(OC)c1OC [compound 830]              LD50    5000 mg/kg
15  COc1cc(NC(=O)CCN2CCN(c3cccc(C(F)(F)F)c3)CC2)cc(OC)c1OC [compound 841]              LD50  > 5000 mg/kg
16  COc1cc(NC(=O)N2CCOC(C)C2)cc(OC)c1OC (stereo not drawn) [compound 816]              LD50    2500 mg/kg
17  COc1cc(NCC(=O)N2CCOc3ccc(Cl)cc32)cc(OC)c1OC [compound 762]              LD50  > 5000 mg/kg
18  COc1cc(NC(=O)NCCCN(C)C)cc(OC)c1OC [compound 785]              LD50    2200 mg/kg
19  COc1cc(NC(=O)N2CCOc3ccccc32)cc(OC)c1OC [compound 774]              LD50  > 5000 mg/kg
20  COc1cc(NC(=O)NC2CCCCC2)cc(OC)c1OC [compound 778]              LD50  > 5000 mg/kg
21  COc1cc(NC(=O)N2CCOCC2)cc(OC)c1OC [compound 733]              LD50    4000 mg/kg
22  CCCCN(CCCC)C(=O)Nc1cc(OC)c(OC)c(OC)c1 [compound 780]              LD50  > 5000 mg/kg
23  COc1cc(NC(=O)CN2CCOc3ccccc32)cc(OC)c1OC [compound 792]              LD50  > 5000 mg/kg
24  COc1cc(NC(=O)NC2CCCCCCC2)cc(OC)c1OC [compound 781]              LD50  > 5000 mg/kg
25  COc1cc(NC(=O)NCCc2ccc(Cl)cc2)cc(OC)c1OC [compound 796]              LD50  > 5000 mg/kg
26  COc1cc(NC(=O)N2CCCCCC2)cc(OC)c1OC [compound 813]              LD50    3000 mg/kg
27  COc1cc(NC(=O)NCCc2ccccc2)cc(OC)c1OC [compound 783]              LD50  > 5000 mg/kg
28  COc1cc(NC(=O)N(C)C2CCCCC2)cc(OC)c1OC [compound 802]              LD50  > 5000 mg/kg
29  COc1cc(NC(=O)N(C)C2CCCC2)cc(OC)c1OC [compound 801]              LD50    2500 mg/kg
30  COc1cc(NC(=O)NC(=O)CN2CCOCC2)cc(OC)c1OC [compound 834]              LD50    3380 mg/kg
31  COc1cc(NC(=O)N(C)CCCN(C)C)cc(OC)c1OC [compound 805]              LD50    2500 mg/kg
32  COc1cc(NC(=O)NN2CCOCC2)cc(OC)c1OC [compound 807]              LD50    2500 mg/kg
33  COc1cc(NC(=O)CN2CCOCC2)cc(OC)c1OC [compound 787]              LD50    2500 mg/kg
34  COc1cc(NCC(=O)N2CCN(c3ccccc3)CC2)cc(OC)c1OC [compound 837]              LD50  > 5000 mg/kg
35  COc1cc(NC(=O)CCN2CCOCC2)cc(OC)c1OC [compound 817]              LD50    5000 mg/kg
36  COc1cc(NCC(=O)N2CCOc3ccccc32)cc(OC)c1OC [compound 782]              LD50  > 5000 mg/kg
37  COc1cc(CNC(=O)Nc2cc(OC)c(OC)c(OC)c2)cc(OC)c1OC [compound 798]              LD50  > 5000 mg/kg
38  COc1cc(N(Cc2ccccc2)C(=O)N2CCOCC2)cc(OC)c1OC [compound 821]              LD50    2500 mg/kg
39  COc1cc(NC(=O)N2CCSCC2)cc(OC)c1OC [compound 804]              LD50  > 5000 mg/kg
